B1: LINE1-full (parent)
chain: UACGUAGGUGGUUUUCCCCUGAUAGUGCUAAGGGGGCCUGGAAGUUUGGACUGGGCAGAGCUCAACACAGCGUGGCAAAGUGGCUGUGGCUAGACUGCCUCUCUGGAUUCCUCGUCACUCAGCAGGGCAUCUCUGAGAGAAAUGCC

- Variants of: B1
- Protocol Notes: self-cleavage, relative activity (ratio to wild type); higher = more cleavage; in vitro, sequencing; the parent is a self-cleaving ribozyme
Catalogue of self-cleavage values
Please state the value as a number alone, without comment.

UACGUAGGUGGUUUUCCCCUGAUAGUGCUAAGGGGCCCUGGAAGUUUGGACUGGGCAGAGCUCAACACAGCGUGGCAAAGUGGCUGUGGCUAGACUGCCUCUCUGGAUUCCUCGUCACUCAGCAGGGCAUCCCUGAGAGAAAUGCC [G36C U132C] = 1.27
UACGUAGGUGGUUUUCCCCUGAUAGUGCUAAGGGGGCCUGGAAGUUUGGACUGGGCAGAGCUCAACACAGCGUGGCAAAGUGGCUUUGGCUAGACUGCCUCUCUGGAUUCCUCGUCACUCAGCGGGGCAUCUCUGAGAGAAAUGCC [G86U A124G] = 0.07
UACGUAGGUGGUUUUCCCCUGAUAGUGCUAAGGGGGCCUGGGAGUUUGGACUGGGCAGAGCUCAACACAGCGUGGCAAAGUGGCUGUGGCUAGACUGCCUCUCUGGAUUCCUCGUCACUUAGCAGGGCAUCUCUGAGAGAAAUGCC [A42G C120U] = 0.67

For this variant ( UACGUAGGUGGUUUUCCCCUGAUAGUGCUAAGGGGGCCUGGAAGUUUGGACUGGGCAGAGCUCAACACAGCGUGGCAAACUGGCUGUGGCUAGACUGCCUCUCUGGGUUCCUCGUCACUCAGCAGGGCAUCUCUGAGAGAAAUGCC [G80C A107G] ), measured self-cleavage is 1.52

For this variant ( UACGUAGGUGGUUUUCCCCUGAUUGUGCUAAGGGGGCCUGGAAGUUUGGACUGGGCAGAGCUCAACUCAGCGUGGCAAAGUGGCUGUGGCUAGACUGCCUCUCUGGAUUCCUCGUCACUCAGCAGGGCAUCUCUGAGAGAAAUGCC [A24U A67U] ), measured self-cleavage is 0.1

Recorded values, source the RNAGym collection of RNA variant scans (doi:10.7554/elife.90254).
